Listing: growth inhibition of selected compounds
test: Restrictive medium S. cerevisiae growth inhibition, OD615, pilot screen of yeast lifespan reduction project, restrictive growth control (AID 706); conditions: OD615, 48 h, at 10 µM, active compounds read high;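 note: modified DeaD lifespan yeast strain shifted to restrictive glucose medium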
Field format: number, assumed %, no unit text.

>>> df
                                   compound  observed_result
0  CC(=O)c1c(C)[nH]c(C(=O)N2CCN(c3ncccn3)CC2)c1C            -5.67

Given the entry CCCS(=O)(=O)NCCc1cc2ccc(OC)cc2[nH]c1=O , report its measured growth inhibition.
-5.31

Try this compound too: CCC1Oc2nc(SC)nnc2-c2ccccc2N1C(=O)c1ccccc1 (stereo unspecified)
-2.26

Also, O=C(c1ccco1)c1cn[nH]c1-c1ccc(Cl)cc1O please.
-8.45

Could you do the same for CCOc1ccc(C2c3c(oc4ccccc4c3=O)C(=O)N2c2ccccn2)cc1OC (stereo unspecified) , please?
-25.5

Would you kindly repeat that for COc1ccc(OCCC(=O)OCC(=O)NCc2ccco2)cc1 ?
1.25

Okay, and Cc1cc(Nc2ccc(C(C)C)cc2)n2ncnc2n1 ?
7.39

###

test: inhibitors of the yeast RAM network, pilot screen, dse1pr::URA3 reporter, 5-FOA selection (AID 869);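 note: 0% = DMSO wells with no growth and 100% = 10 µM 1-NA-PP1 with full growth; RAM network block rescues cells from 5-FOA so hits raise OD615 growth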; conditions: S. cerevisiae dse1pr::URA3 5-FOA growth, OD615, 2 d; at 10 µM; active compounds read high; strain carries analog-sensitive mutant Cbk1 kinase
observed_property: inhibition (%)
The figure you give is taken to be in %; do not add the unit.

In [3]: df
Out[3]:
                              molecule  observed_result
0  Cc1cc(-c2ccco2)n(CC(=O)NCc2ccco2)n1            0.355

Any idea what inhibition was measured for CCOC(=O)C1CCN(CC(O)COc2ccc(C(C)(C)CC)cc2)CC1 (stereo unspecified) ?
-0.58

Also COC(=O)c1cn(C(C)C(=O)NCc2ccco2)c2ccccc12 (stereo unspecified) ?
1.68

// next record COc1ccc(C(=O)Nc2c(N)nc(SCC(=O)N3CCCCCC3)[nH]c2=O)cc1OC
1.97

What would you report for O=c1c2ccccc2nnn1CSc1nnc(-c2ccco2)o1 ?
0.57

Lookup CCCSC1=C(C#N)C(c2ccc(O)c(OC)c2)CC(=O)N1 (stereo unspecified)
1.66

###

test: growth suppression of PTEN-deleted HCT116, pilot screen, cell-based, HCT116 clonal line, CellTiter-Glo (AID 824); details: 60 h, at 10 µM, active compounds read low;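 note: 0% = 20 µM Hyamine control and 100% = vehicle cell control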
Inconclusive results are not listed.
Note to self: viability under 90% means 1.0, ties and anything higher get 0.0.

The examples below pair each entry with its known result.
                                   compound  label
0  CC(=O)Nc1ccc(NC2(C)C(=O)c3ccccc3C2=O)cc1    0.0
1  O=C(CSc1nnc(-c2ccccn2)n1Cc1ccco1)c1ccc(Cl)cc1    1.0
2  Cc1ccc(CCN2CC(C(=O)NCCCN3CCN(C)CC3)CC2=O)cc1 (stereo unspecified)    0.0
3  COc1cccc(C2NC(=O)NC(O)(C(F)(F)F)C2C(=O)c2cccnc2)c1OC (stereo unspecified)    0.0

Next up:
In plain terms, does C/C(=C\C(=O)c1ccc(C)cc1)Nc1cccc(O)c1 come in under 90% for viability?
0.0
